- assayExplanation: Pharmacokinetic study after oral and intravenous administration to Wistar rats
- Format: in vivo
- cond: female, Wistar, rat, plasma, po, 20 mg/kg, oral 20 mg/kg, female Wistar rats; read-out: β (elimination rate constant) (converted)

- testSmiles: "CS(=O)(=O)c1ccc(-c2cc(C(=O)O)c3cc(C(=O)c4ccccc4)ccc3n2)cc1"
  k el: "3.61e-05 s⁻¹"

----------
- assayExplanation: Pharmacokinetic study after oral and intravenous administration to Wistar rats
- Format: in vivo
- cond: female, Wistar, rat, plasma, iv, 10 mg/kg, intravenous 10 mg/kg, female Wistar rats; read-out: β (elimination rate constant) (converted)
parameter: k el (s⁻¹)

- testSmiles: "CS(=O)(=O)c1ccc(-c2cc(C(=O)O)c3cc(C(=O)c4ccccc4)ccc3n2)cc1"
  parameter: "k el"
  readoutUnit: "s⁻¹"
  recordedNumber: "9.72e-05"

----------
- assayExplanation: Pharmacokinetic study after oral and intravenous administration to Wistar rats
- Assay type: in vivo
- cond: rat, plasma; intravenous 10 mg/kg, female Wistar rats
- Protocol: Male and female Wistar rats weighting 250 ± 10 g were used. They were kept at 25 ± 1 °C temperature and controlled humidity with 12 h light/dark cycle. The animals were fasted overnight before the experiment and had free access to water. The study protocol was approved by the local committee for animal experiments of Shahid Beheshti University of Medical Sciences (Tehran, Iran). […]

- testSmiles: "CS(=O)(=O)c1ccc(-c2cc(C(=O)O)c3cc(C(=O)c4ccccc4)ccc3n2)cc1"
  readoutUnit: "ng·h/mL"
  AUC(0-inf): 79400

----------
- assayExplanation: Pharmacokinetic study after oral and intravenous administration to Wistar rats
- Assay type: in vivo
- cond: rat, plasma; oral 20 mg/kg, female Wistar rats
parameter: AUC(0-inf) (ng·h/mL)

- testSmiles: "CS(=O)(=O)c1ccc(-c2cc(C(=O)O)c3cc(C(=O)c4ccccc4)ccc3n2)cc1"
  recordedNumber: 41300

----------
- assayExplanation: Pharmacokinetic study after oral and intravenous administration to Wistar rats
- Format: in vivo
- cond: male, Wistar, rat, plasma, po, 20 mg/kg, oral 20 mg/kg, male Wistar rats; read-out: β (elimination rate constant) (converted)

- testSmiles: "CS(=O)(=O)c1ccc(-c2cc(C(=O)O)c3cc(C(=O)c4ccccc4)ccc3n2)cc1"
  k el [s⁻¹]: "3.89e-05"

----------
- assayExplanation: Pharmacokinetic study after oral and intravenous administration to Wistar rats
- Type: in vivo
- cond: rat, plasma; oral 20 mg/kg, male Wistar rats; read-out: t1/2 β (converted)
parameter: half-life

- compound: "CS(=O)(=O)c1ccc(-c2cc(C(=O)O)c3cc(C(=O)c4ccccc4)ccc3n2)cc1 [AZGH101]"
  result: "4.99 h"

----------
- assayExplanation: Pharmacokinetic study after oral and intravenous administration to Wistar rats
- Format: in vivo
- cond: rat, plasma; oral 20 mg/kg vs intravenous 10 mg/kg, male Wistar rats; read-out: F (oral absolute bioavailability)

- compound: "CS(=O)(=O)c1ccc(-c2cc(C(=O)O)c3cc(C(=O)c4ccccc4)ccc3n2)cc1 [AZGH101]"
  bioavailability / %: 26

----------
- assayExplanation: Pharmacokinetic study after oral and intravenous administration to Wistar rats
- Assay type: in vivo
- cond: rat, plasma; intravenous 10 mg/kg, male Wistar rats; read-out: Vd
parameter: Vd (L)

- testSmiles: "CS(=O)(=O)c1ccc(-c2cc(C(=O)O)c3cc(C(=O)c4ccccc4)ccc3n2)cc1"
  recordedNumber: 0.0941
